Parameter: melting point. Scope: all listed entries.

Some solved cases for reference:
compound | result
Nc1ccc(-c2ccc(N)c(Cl)c2)cc1Cl | 132 °C
O=C(OC[C@H]1O[C@@H](O)[C@H](O)[C@@H](O)[C@@H]1O)c1ccccc1 | 121 °C
O=Cc1cc(Cl)ccc1Cl | 58 °C
CCCCCC(C)CC (stereo not drawn) | -108 °C
OC1CCCCCC1 | 2 °C
CC(=O)O[C@@H]1CC2CCC1(C)C2(C)C (stereo partly drawn) | 29 °C
ON=C1CCCCC1 | 90 °C

Note: attention shifts to another entry.
input: Would you kindly share the measured melting point for COc1cc(Cl)c(Cl)cc1OC ?
output: 83 °C
